assay: AUC in rat plasma at 10 mg/kg, po; type: ADME, organism-based; parameters: dose 10 mg/kg
measuredMetric: AUC (µM·h)
Report as a plain number; the unit µM·h is understood.

In plain terms, Cc1sc(C(=O)c2cncnc2N[C@@H]2C[C@H](COS(N)(=O)=O)[C@@H](O)C2)cc1C1OCCc2ccc(Cl)cc21 (stereo in doubt) has a documented AUC of 0.6

In plain terms, Cc1sc(C(=O)c2cncnc2N[C@@H]2C[C@H](COS(N)(=O)=O)[C@@H](O)C2)cc1[C@@H]1NCCc2ccc(Cl)cc21 has a documented AUC of 0.3

In plain terms, NS(=O)(=O)OC[C@H]1C[C@@H](Nc2ncncc2C(=O)c2ccn(Cc3cccc(Br)c3)n2)C[C@@H]1O has a documented AUC of 0.1
